All figures here come from PubChem BioAssay (NCATS).

assay: Cellular viability qHTS for adrenocortical cancer (ACC) cell line NCI-H295R (AID 1963990); settings: CellTiter-Glo ATP luminescence, 48 h; series mostly up to 46.1 µM; note: nearly all actives have a fitted effect of over 60% in size
Inconclusive results are not listed. The source made the active and inactive calls. Calls come from the whole dose curve; as a rule, active = well fitted cell-killing curve with a large enough effect; inconclusive = small, poorly fitted or top-dose-only effect; inactive = flat fitted curve, though single readings scatter.
Log the outcome using a class from yes (1) for active, no (0) for inactive

What classification did "CCCCCCCCCCCCCCCC[N+](C)(C)CCN(Cc1ccc(OC)cc1)c1ncccn1" end up with in this test?
yes (1)

Could you kindly confirm the outcome this assay logged for "O=C(O)c1c(Cl)c(Cl)c(Cl)c(Cl)c1-c1c2cc(I)c(=O)c(I)c-2oc2c(I)c(O)c(I)cc12" ?
yes (1)

Returns: the outcome recorded for "COc1cccc2c1c(O)c(C(=O)N(C)c1ccc(C(F)(F)F)cc1)c(=O)n2C" in this assay.
no (0)

Please indicate how the test categorized "COCCc1ccccn1" .
no (0)

Tell me the assay call for "Fc1ccc(C(c2ccc(F)cc2)N2CCNCC2)cc1" please.
no (0)

Hello, I am checking results. What call was entered for "CCc1nc(C(N)=O)c(Nc2ccc(N3CCC(N4CCN(C)CC4)CC3)c(OC)c2)nc1NC1CCOCC1" ?
yes (1)

Please let me know the test result on file for "Cc1cccc(Nc2ccccc2C(=O)O)c1C" .
no (0)

Given "CN1CC(=O)N2[C@H](c3ccc4c(c3)OCO4)c3[nH]c4ccccc4c3C[C@@H]2C1=O" , state the outcome it received in this test.
no (0)

Please let me know the test result on file for "Cc1ccc(NC(=O)C2(c3ccc4c(c3)OC(F)(F)O4)CC2)nc1-c1cccc(C(=O)O)c1" .
no (0)

How did this test come out for "Cc1onc(-c2ccc(F)cc2)c1COc1ccc(C(=O)N2CCS(=O)(=O)CC2)cn1" ?
no (0)

* * *

assay: Quantitative highthroughput screen to assess conditional lethalithy of NOMO1 cells grown in RPMI1640 with dialyzed fetal bovine serum (RPMI+ds) (AID 1963877); conditions: NOMO1 in RPMI+dialyzed FBS viability, ATP luminescence, 48 h; series mostly up to 45.8 µM; note: nearly all actives have a fitted effect of over 30% in size;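 for viability: 100% = DMSO control wells and 0% = empty wells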
Inconclusive results are not listed. Active and inactive are the calls of the source. The call rests on the fitted dose curve; in most records, active means well fitted cell-killing curve with a large enough effect; inconclusive means small, poorly fitted or top-dose-only effect; inactive means flat fitted curve, though single readings scatter.
Returns: one label drawn from class 1 = active, class 0 = inactive

Dear all, I need the recorded test outcome for "CC1=C(CO)C(=O)O[C@@H]([C@@H](C)[C@H]2CC[C@H]3[C@@H]4C[C@H]5O[C@]56[C@@H](O)C=CC(=O)[C@]6(C)[C@@H]4CC[C@]23C)C1" , thank you.
class 1

# lookup: test call for "COCCNCCCn1c(C(=O)CF)c(-c2ccc(C)cc2)c2c(N)ncnc21"
class 0

I'd appreciate the recorded outcome for "Cn1cnc([N+](=O)[O-])c1Sc1ncnc2nc[nH]c12" from this test.
class 1

Fill in: this test's call for "Cc1ccc(C(=O)Nc2ccc(Oc3cc4cnn(C)c4cc3-c3cn[nH]c3)c(F)c2)c(=O)n1-c1ccc(F)cc1" is ___
class 1

* * *

assay: Quantitative highthroughput screen to assess conditional lethalithy of SEM cells grown in RPMI1640 with dialyzed fetal bovine serum (RPMI+ds) (AID 1963884); settings: SEM B-ALL cells, RPMI+dialyzed FBS, CellTiter-Glo viability, 48 h; series mostly up to 45.8 µM; note: nearly all actives have a fitted effect of over 35% in size;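 for viability: 100% = DMSO control wells and 0% = empty wells without cells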
Records with an inconclusive call do not appear. Calls of active or inactive are those of the source. Calls follow the shape of the dose curve; as a rule, active = well fitted cell-killing curve with a large enough effect; inconclusive = small, poorly fitted or top-dose-only effect, or effect the other way; inactive = no such curve, though single readings can be large or run the other way.
Respond using exactly one of the listed classes: true for active, false for inactive

GET /call?item= "CNC(=O)c1c(F)cccc1Nc1nc(Nc2cc3c(cc2OC)CCN3C(=O)CN(C)C)nc2[nH]ccc12" returns the recorded outcome of this test.
true

# outcome recorded in this test, key = "CN[C@H](CC(C)C)C(=O)N[C@H]1C(=O)N[C@@H](CC(N)=O)C(=O)N[C@@H]2C(=O)N[C@H]3C(=O)N[C@H](C(=O)N[C@H](C(=O)O)c4cc(O)cc(O)c4-c4cc3ccc4O)[C@H](O)c3ccc(c(Cl)c3)Oc3cc2cc(c3O[C@@H]2O[C@H](CO)[C@@H](O)[C@H](O)[C@@H]2O[C@H]2C[C@](C)(N)[C@H](O)[C@H](C)O2)Oc2ccc(cc2Cl)[C@H]1O"
false

What did this assay record as the result for "CNC(=O)[C@H](CC1=CN=C2C=CCC=C12)NC(=O)[C@@H](CC(=O)NO)CC(C)C" ?
false

GET /call?item= CCOCC(O)COc1ccc(NC(=O)CC[S+](C)C)cc1 (configuration not stated) returns the recorded outcome of this test.
false

What is the recorded call for this molecule in the test? "COc1cccc2c(NCc3ccccc3)nc(-n3c(N)nc4ccccc43)nc12"
true

Returns: the outcome recorded for "COc1cc2c(cc1OC)[C@@H]1C(=O)c3ccc4c(c3O[C@@H]1CO2)C=CC(C)(C)O4" in this assay.
true

Answer briefly: the call reported for "Cc1cn2cc(C(=O)N(C)CCO)cc(N[C@@H]3CCOc4cccc(C)c43)c2n1" in this assay.
false

Status in this test for "CC(C)(C)c1cnc(CSc2cnc(NC(=O)C3CCNCC3)s2)o1" ?
true

Hi, sorry to bother you, what did the test record for "O=c1[nH]nc(Sc2ncc([N+](=O)[O-])s2)n1-c1ccc2c(c1)OCCO2" ?
true

Which outcome was entered for the molecule "CCOC(=O)[C@H]1O[C@H]1C(=O)N[C@@H](CC(C)C)C(=O)NCCC(C)C" in this test?
false

How did this test come out for "N#CNC(=NCCCCCCOc1ccc(Cl)cc1)Nc1ccncc1" ?
false

Write down the call the test reported for this molecule. Item: "NC(=O)NN=Cc1ccc([N+](=O)[O-])o1"
false

Lab log entry: "Cc1n[nH]c(C)c1Cc1sc2c(c1C(=O)N1C[C@H](O)CO1)c(=O)n(C)c(=O)n2CC(C)C" — outcome as called in the assay?
false

In this assay, the call recorded for "NC(=O)N1c2ccccc2CC(=O)c2ccccc21" was what?
false

Record request — test call for "O=c1[nH]c(=O)n([C@H]2C[C@@H](O)[C@@H](CO)O2)cc1C=CBr"
false

Lab log entry: "COc1cc(F)c(C(C)C)cc1-c1ccc(C(F)(F)F)cc1CN1C(=O)O[C@H](c2cc(C(F)(F)F)cc(C(F)(F)F)c2)[C@@H]1C" — outcome as called in the assay?
false

Lab log entry: "Cc1ccc([N+](=O)[O-])cc1S(=O)(=O)N(C)N=Cc1cnc2ccc(Br)cn12" — outcome as called in the assay?
true

* * *

assay: Quantitative highthroughput screen to assess conditional lethalithy of SEM cells grown in RPMI1640 with unreated serum (RPMI+s) (AID 1963883); conditions: SEM B-ALL cells, CellTiter-Glo viability, 48 h; series mostly up to 45.8 µM; note: nearly all actives have a fitted effect of over 35% in size;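 for viability: 100% = DMSO wells and 0% = empty wells without cells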
Inconclusive results are not listed. Active and inactive are the calls of the source. The call rests on the fitted dose curve; in most records, active means well fitted cell-killing curve with a large enough effect; inconclusive means small, poorly fitted or top-dose-only effect, or effect the other way; inactive means no such curve, though single readings can be large or run the other way.
Respond using exactly one of the listed classes: active, inactive

Kindly provide the recorded test outcome for the following compound: "C1=CCOCc2cc(ccc2OCCN2CCCC2)Nc2nccc(n2)-c2cccc(c2)OCC1"
active

State the result this test recorded for "CC[C@@]1(O)C(=O)OCc2c1cc1n(c2=O)Cc2cc3c(CN(C)C)c(O)ccc3nc2-1" .
active

How did this test come out for "COc1ccc2c(c1)c(CC(=O)OCC(=O)O)c(C)n2C(=O)c1ccc(Cl)cc1" ?
inactive

Kindly provide the recorded test outcome for the following compound: "CC(=O)O[C@]1(C(C)=O)CC[C@H]2[C@@H]3C=C(Cl)C4=CC(=O)[C@@H]5C[C@H]5[C@]4(C)[C@@H]3CC[C@@]21C"
inactive

* * *

assay: Quantitative highthroughput screen to assess conditional lethalithy of NOMO1 cells grown in Human Plasma-Like Medium with dialyzed fetal bovine serum (HPLM+ds) (AID 1963878); conditions: NOMO1 AML cells in HPLM+ds, CellTiter-Glo viability, 48 h; series mostly up to 45.8 µM; note: nearly all actives have a fitted effect of over 35% in size;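 for viability: 100% = DMSO wells and 0% = empty wells on each plate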
Inconclusive results are not listed. The source made the active and inactive calls. Calls follow the shape of the dose curve; as a rule, active = well fitted cell-killing curve with a large enough effect; inconclusive = small, poorly fitted or top-dose-only effect, or effect the other way; inactive = no such curve, though single readings can be large or run the other way.
Response enum: active, inactive

What did the test return for "CCN(CC)CCNC(=O)c1c(C)[nH]c(C=C2C(=O)Nc3ccc(F)cc32)c1C" ?
active

Recorded test call requested for "O=C(CCCCCCC(=O)Nc1ccccc1)NO"
active

Query: recorded result category for "C=C1C(=CC=C2CCC[C@]3(C)[C@@H]([C@H](C)C=C[C@H](C)C(C)C)CC[C@@H]23)C[C@@H](O)C[C@@H]1O" in this test
active

Call for entry "CCCc1nc(C)c2c(=O)[nH]c(-c3cc(S(=O)(=O)N4CCN(CC)CC4)ccc3OCC)nn12" :
active

Hey, what did the test say about "O=C(O)[C@H](Cc1c[nH]c2ccccc12)N1C(=O)c2ccccc2C1=O" ?
inactive

* * *

Assay: Quantitative highthroughput screen to assess conditional lethalithy of P12 Ichikawa cells grown in RPMI1640 with untreated serum (RPMI+s) (AID 1963881); note: nearly all actives have a fitted effect of over 35% in size; note: potency is the fitted concentration of half-maximal effect;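 for viability: 100% = DMSO wells and 0% = empty wells without cells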
Settings: ATP luminescence, 48 h; viability; series mostly up to 45.8 µM
Description: Assay Provider: Jason Cantor Ph.D. Department of Biochemistry University of Wisconsin-Madison, Madison, WI, USA Chemical screening studies have identified drug sensitivities across hundreds of cancer cell lines but most putative therapeutics fail to translate. […] Sets of conditional anticancer compounds spanned phases of clinical development and included non-oncology drugs were assessed. […] 6; Detection; Luminescence, Viewlux PerkinElmer. […]
Results filed as inconclusive are left out. Calls of active or inactive are those of the source. The call rests on the fitted dose curve; in most records, active means well fitted cell-killing curve with a large enough effect; inconclusive means small, poorly fitted or top-dose-only effect; inactive means flat fitted curve, though single readings scatter.
assay readout: Potency

Please review the entries below; each comes with its answer.
INSERT INTO results (compound, experimental_value) VALUES
  ('CCC(=O)NCC[C@@H]1CCc2ccc3c(c21)CCO3', 'inactive'),
  ('CN[C@@H]1CN(c2ccc3c(=O)c(C(=O)O)cn(-c4nccs4)c3n2)C[C@@H]1OC', '6.45 µM (active)'),
  ('O=c1cc(N2CCOCC2)oc2c(-c3cccc4c3sc3ccccc34)cccc12', 'inactive'),
  ('NC(CO)(CO)CCc1ccc(Sc2cccc(OCc3ccccc3)c2)cc1Cl', '10.5 µM (active)'),
  ('Fc1ccc([C@@H]2CCNC[C@H]2COc2ccc3c(c2)OCO3)cc1', '14.8 µM (active)'),
  ('CCOC(=O)O[C@]1(C(=O)OCCl)CC[C@@H]2[C@H]3CCC4=CC(=O)C=C[C@]4(C)[C@@H]3[C@@H](O)C[C@@]21C', 'inactive'),
  ('CC[C@@H]1C(=O)N(C)c2cnc(Nc3ccc(C(=O)NC4CCN(C)CC4)cc3OC)nc2N1C1CCCC1', '0.0332 µM (active)'),
  ('CN1CCN2c3ncccc3Cc3ccccc3C2C1 (stereo not given)', 'inactive');

Field Potency (entry "CC(=O)N(C)C1(c2ccccc2)CCN(CCC[C@]2(c3ccc(Cl)c(Cl)c3)CCCN(C(=O)c3ccccc3)C2)CC1" ) reads 7.43 µM (active)

Kindly note the recorded Potency for "CC[C@H](NC(C)C)[C@H](O)c1ccc(O)c2[nH]c(=O)ccc12" , which is inactive
